assayed target: Neuropeptides B/W receptor type 1 (Homo sapiens) (UniProt P48145)
Sequence (P48145 whole entry, looked up): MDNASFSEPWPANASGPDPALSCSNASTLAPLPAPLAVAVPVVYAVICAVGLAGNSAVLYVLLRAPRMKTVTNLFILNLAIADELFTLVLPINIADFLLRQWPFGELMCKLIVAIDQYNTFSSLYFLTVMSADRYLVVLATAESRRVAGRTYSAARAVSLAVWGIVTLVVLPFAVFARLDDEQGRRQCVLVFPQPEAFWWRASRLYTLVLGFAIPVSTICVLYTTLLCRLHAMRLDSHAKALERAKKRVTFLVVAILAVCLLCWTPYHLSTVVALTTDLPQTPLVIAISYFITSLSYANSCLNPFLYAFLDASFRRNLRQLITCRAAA
experiment notes: human NPBW1 receptor blockade, IC50 – cell-based, fluorescence, dose response, set 5, late-stage follow-up (AID 588566)
assay context: GPR7-expressing cells, fluorescence antagonist assay
pIC50: −log10 of the molar value.
attribute measured: pIC50

Consider the worked cases shown below.
COc1ccc(Oc2c(Cl)cnn(-c3nc4ccccc4c(=O)c4ccccc34)c2=O)cc1	5.66
COc1ccc(Oc2c(Cl)cnn(C3c4ccccc4Oc4ccccc43)c2=O)cc1	5.51
CCc1cccc(Oc2c(Cl)cnn(Cc3cccc4ccccc34)c2=O)c1	5.07
COc1cc(Oc2c(Cl)cnn(Cc3cccc4ccccc34)c2=O)cc(OC)c1OC	5.75

1. O=c1c(Oc2ccc3c(c2)CCC3)c(Cl)cnn1Cc1cccc2ccccc12
2. COc1ccc(Oc2c(Cl)cnn(C3=Nc4cc(Cl)ccc4Oc4ncccc43)c2=O)cc1
Pick one: 1 or 2 . Which one has the lower reported pIC50? API: response body contains the label of the selected item.
1
